Data provenance is patent US20040072206A1.

target: B. subtilis RNAP (Bacillus subtilis, UniProt P37870+P37871); construct: endogenous in cells; host or cells: Bacillus subtilis strain PL37 (built from strain 168); test: Dual reporter assay in strain PL37: test reporter Pxyl-lacZ and ratio of control to test reporter (RES:MUG); format: cell-based; details: strain PL37; Dilution Number 11 (lowest concentration tested: 0.125, 0.016 or 0.0005 μg/ml depending on antibiotic); DMSO control […]
Sequence (P37871 whole entry): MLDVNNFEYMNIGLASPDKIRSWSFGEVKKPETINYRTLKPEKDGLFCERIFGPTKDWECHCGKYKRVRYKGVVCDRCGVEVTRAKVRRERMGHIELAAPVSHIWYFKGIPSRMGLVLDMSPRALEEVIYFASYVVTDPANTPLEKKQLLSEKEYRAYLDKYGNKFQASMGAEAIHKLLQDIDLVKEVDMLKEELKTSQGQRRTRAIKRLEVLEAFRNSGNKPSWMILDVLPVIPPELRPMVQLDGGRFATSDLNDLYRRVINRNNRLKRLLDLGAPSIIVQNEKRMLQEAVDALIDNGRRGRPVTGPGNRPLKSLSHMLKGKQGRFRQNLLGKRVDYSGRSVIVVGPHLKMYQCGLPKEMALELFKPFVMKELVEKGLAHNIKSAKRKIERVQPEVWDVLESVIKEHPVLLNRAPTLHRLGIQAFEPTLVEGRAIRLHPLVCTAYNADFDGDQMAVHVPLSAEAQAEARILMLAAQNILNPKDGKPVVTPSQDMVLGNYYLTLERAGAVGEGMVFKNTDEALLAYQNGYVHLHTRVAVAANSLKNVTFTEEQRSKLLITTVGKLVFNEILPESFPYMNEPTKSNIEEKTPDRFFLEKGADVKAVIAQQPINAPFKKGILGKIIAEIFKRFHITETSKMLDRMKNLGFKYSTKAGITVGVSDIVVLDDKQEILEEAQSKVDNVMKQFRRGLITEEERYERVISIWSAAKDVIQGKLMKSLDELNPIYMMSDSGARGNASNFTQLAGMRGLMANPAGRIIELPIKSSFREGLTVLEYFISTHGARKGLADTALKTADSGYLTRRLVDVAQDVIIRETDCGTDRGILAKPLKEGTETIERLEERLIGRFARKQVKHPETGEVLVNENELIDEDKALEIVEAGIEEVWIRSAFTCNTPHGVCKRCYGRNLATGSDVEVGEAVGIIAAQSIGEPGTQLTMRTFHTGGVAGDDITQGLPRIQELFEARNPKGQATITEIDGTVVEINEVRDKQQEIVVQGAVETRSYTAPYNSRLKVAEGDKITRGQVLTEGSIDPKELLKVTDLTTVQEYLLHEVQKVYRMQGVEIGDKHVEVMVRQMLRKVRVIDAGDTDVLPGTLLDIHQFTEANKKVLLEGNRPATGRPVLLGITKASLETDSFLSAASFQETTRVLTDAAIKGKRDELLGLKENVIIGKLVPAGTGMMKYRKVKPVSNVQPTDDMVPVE
Sequence (P20429 whole entry, further chain): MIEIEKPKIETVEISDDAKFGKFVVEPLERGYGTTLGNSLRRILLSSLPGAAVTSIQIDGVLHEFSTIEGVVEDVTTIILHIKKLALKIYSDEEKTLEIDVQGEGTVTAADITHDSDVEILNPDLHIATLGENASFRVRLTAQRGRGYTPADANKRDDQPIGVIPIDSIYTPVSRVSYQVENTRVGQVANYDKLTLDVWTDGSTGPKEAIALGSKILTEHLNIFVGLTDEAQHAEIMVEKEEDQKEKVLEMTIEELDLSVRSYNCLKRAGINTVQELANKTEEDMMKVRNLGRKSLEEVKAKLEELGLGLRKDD
Sequence (O35011 whole entry, further chain): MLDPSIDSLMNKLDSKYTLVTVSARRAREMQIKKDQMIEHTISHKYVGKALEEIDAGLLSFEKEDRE
Sequence (P37870 whole entry): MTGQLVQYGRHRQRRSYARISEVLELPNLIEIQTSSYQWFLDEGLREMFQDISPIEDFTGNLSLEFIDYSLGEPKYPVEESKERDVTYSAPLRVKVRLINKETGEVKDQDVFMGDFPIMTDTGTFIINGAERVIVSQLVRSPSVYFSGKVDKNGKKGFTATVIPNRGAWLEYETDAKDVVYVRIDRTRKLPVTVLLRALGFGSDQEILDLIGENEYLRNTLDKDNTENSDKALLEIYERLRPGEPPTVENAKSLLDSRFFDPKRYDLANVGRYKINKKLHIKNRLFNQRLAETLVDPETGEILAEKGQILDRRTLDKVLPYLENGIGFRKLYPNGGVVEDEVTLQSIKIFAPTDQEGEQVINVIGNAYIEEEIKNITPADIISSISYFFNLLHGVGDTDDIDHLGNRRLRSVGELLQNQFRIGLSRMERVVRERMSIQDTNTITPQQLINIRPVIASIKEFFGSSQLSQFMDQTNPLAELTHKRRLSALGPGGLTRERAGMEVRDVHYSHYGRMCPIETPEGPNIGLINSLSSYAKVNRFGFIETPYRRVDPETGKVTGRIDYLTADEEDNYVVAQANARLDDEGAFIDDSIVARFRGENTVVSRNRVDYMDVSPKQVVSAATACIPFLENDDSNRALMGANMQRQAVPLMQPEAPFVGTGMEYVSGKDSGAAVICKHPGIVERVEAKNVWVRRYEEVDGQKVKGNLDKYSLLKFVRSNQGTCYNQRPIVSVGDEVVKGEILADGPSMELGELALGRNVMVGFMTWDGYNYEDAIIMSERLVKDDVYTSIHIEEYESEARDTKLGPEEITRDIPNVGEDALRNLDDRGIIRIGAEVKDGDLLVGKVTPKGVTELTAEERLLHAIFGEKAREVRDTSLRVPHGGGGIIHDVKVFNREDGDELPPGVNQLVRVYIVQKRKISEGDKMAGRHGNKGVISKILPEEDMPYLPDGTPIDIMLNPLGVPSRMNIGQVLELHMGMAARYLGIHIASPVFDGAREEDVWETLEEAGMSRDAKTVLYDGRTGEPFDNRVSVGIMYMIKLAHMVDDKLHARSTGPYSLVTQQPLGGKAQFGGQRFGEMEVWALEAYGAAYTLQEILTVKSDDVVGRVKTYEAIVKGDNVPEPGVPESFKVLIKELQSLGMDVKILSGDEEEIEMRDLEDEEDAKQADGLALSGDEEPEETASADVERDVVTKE
Quick list: Ratio of the control reporter (RES): test reporter (MUG) per entry.

QUERY: Sample CC[C@@]1([C@@H]2O[C@@H]([C@H]3O[C@@](O)(CO)[C@H](C)C[C@@H]3C)C[C@@H]2C)CC[C@H]([C@]2(C)CC[C@]3(C[C@H](O)[C@@H](C)[C@@H]([C@@H](C)[C@@H](OC)[C@H](C)C(=O)O)O3)O2)O1 [Monensin] — what was its Ratio of the control reporter (RES): test reporter (MUG)?
RESULT: 1.33

QUERY: Sample CNC(=O)[C@@H](C)[C@H]1C(=O)/C(=C(O)/C=C/C(C)=C/[C@@H](C)[C@H]2O[C@@]3(C)O[C@H](C=C[C@@]34CO4)[C@@H]2C)C(=O)N1[C@@H]1CC[C@H](O)[C@H](C)O1 [Streptolydigin] — what was its Ratio of the control reporter (RES): test reporter (MUG)?
RESULT: 1.16
